# Test system: Mus musculus
# Test Protocol: Antidepressant activity in pargyline-pretreated mouse assessed as potentiation of serotonin-induced tremor, head movements, abducted limbs and irritability at 100 mg/kg, po treated 4 hrs prior to serotonin-challenge
# Assay type: functional, organism-based
# Set-up: dose 100 mg/kg
Calls of active or inactive are those of the source. The calls are words filed in the database; no cut-off is given here.
Property: Activity

CN(C)CCCN1c2ccccc2CCc2ccc(Cl)cc21
Active
CN(C)C1C=C(C2c3ccccc3C=Cc3ccccc32)CCC1 (centres undefined)
Active
CN1CC2C(C1)C21c2ccccc2CCc2ccc(Cl)cc21 (centres undefined)
Active

----------
# System: Mus musculus
# Test Protocol: Antidepressant activity in pargyline-pretreated mouse assessed as potentiation of serotonin-induced tremor, head movements, abducted limbs and irritability at 25 mg/kg, po treated 1 hr prior to serotonin-challenge
# Assay type: functional, organism-based
# Design: dose 25 mg/kg
Activity calls are given as the source filed them. The calls are words filed in the database; no cut-off is given here.
Response enum: active, inactive

Some entries whose results are on file:
CN1CC2C(C1)C21c2ccccc2CCc2ccc(Cl)cc21 (stereo not given)
inactive
CN(C)C1C=C(C2c3ccccc3C=Cc3ccccc32)CCC1 (stereo not given)
inactive
CN(C)C1CCCCC(=C2c3ccccc3CCc3ccccc32)C1 (stereo not given)
inactive
CN(C)CCCN1c2ccccc2CCc2ccc(Cl)cc21 [CLOMIPRAMINE]
active

Kindly provide the recorded test outcome for the following molecule: CN1C2CCC1CC(=C1c3ccccc3CCc3ccccc31)C2 inactive
